# credit: ChEMBL document CHEMBL4229491

protocol description: Drug uptake in Kunming mouse plasma at 1.5 mg/kg, iv measured after 30 mins by LC/MS/MS analysis
Format: ADME, organism-based
metric: concentration at 0.5 h
Units required after the number.

Exam item: Tell me the measured concentration at 0.5 h of Cc1cc(N2CCc3sccc3C2)cc(C)c1NC(=O)CC(C)(C)C , please.
Marked response: 137 ng/mL

---

protocol description: Drug uptake in Kunming mouse brain at 1.5 mg/kg, iv measured after 2 hrs by LC/MS/MS analysis
Assay type: ADME, organism-based
condition summary: read-out: Drug uptake
metric: concentration at 2 h (ng/g)
Report the figure in ng/g without appending any unit label.

Exam item: Tell me the measured concentration at 2 h of Cc1cc(N2CCc3sccc3C2)cc(C)c1NC(=O)CC(C)(C)C , please.
Marked response: 1.27

---

tgt: Potassium voltage-gated channel subfamily KQT member 2 (Homo sapiens, UniProt O43526)
Sequence (O43526 whole entry): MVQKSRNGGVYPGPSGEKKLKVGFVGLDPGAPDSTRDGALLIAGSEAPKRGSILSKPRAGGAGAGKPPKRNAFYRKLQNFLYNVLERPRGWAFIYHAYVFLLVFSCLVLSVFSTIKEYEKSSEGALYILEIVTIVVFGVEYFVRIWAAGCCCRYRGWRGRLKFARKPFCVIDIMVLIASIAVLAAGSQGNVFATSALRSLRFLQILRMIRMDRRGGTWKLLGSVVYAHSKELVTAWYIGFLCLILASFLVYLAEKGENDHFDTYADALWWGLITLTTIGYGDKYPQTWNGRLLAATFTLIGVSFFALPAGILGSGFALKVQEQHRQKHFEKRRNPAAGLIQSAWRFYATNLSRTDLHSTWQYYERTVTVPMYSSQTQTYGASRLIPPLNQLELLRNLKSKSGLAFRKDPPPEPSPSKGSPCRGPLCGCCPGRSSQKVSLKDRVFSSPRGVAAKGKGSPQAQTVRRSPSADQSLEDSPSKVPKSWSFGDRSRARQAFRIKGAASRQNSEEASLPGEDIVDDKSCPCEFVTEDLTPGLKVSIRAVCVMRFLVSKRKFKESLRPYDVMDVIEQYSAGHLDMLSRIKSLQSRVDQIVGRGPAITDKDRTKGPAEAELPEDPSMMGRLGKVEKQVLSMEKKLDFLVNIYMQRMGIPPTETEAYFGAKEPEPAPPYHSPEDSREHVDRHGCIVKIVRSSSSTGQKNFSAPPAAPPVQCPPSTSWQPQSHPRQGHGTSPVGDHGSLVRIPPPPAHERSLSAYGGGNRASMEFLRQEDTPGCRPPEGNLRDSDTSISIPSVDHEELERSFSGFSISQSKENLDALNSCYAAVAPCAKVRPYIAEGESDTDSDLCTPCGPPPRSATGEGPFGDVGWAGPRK
protocol description: Channel opening activity at KCNQ2 (unknown origin) expressed in CHO cells after 10 mins by atomic absorption spectrophotometry-based Rb+ flow assay
Assay type: cell-based
metric: pEC50
pEC50 here is simply -log10 of the concentration when that concentration is written in mol/L.

{"smiles notation": "Cc1cc(N2CCn3cccc3C2)cc(C)c1NC(=O)CC(C)(C)C", "pEC50": 7.47}
{"smiles notation": "Cc1cc(N2CCc3ccsc3C2)cc(C)c1NC(=O)CC(C)(C)C", "pEC50": 7.70}

Exam item: Tell me the measured pEC50 of Cc1cc(N2CCCCc3cc(Br)ccc32)cc(C)c1NC(=O)CC(C)(C)C , please.
Marked response: 5.97

Exam item: Tell me the measured pEC50 of Cc1cc(N2CCc3sc(C#N)cc3C2)cc(C)c1NC(=O)CC(C)(C)C , please.
Marked response: 6.54

---

Reported pEC50 values are given for each entry in this list.
tgt: Potassium voltage-gated channel subfamily KQT member 2 (Homo sapiens, UniProt O43526)
protocol description: Channel opening activity at KCNQ2 (unknown origin) expressed in CHO cells after 10 mins by atomic absorption spectrophotometry-based Rb+ flow assay
pEC50 here is simply -log10 of the concentration when that concentration is written in mol/L.

Below: 2 molecules and their reported pEC50.
{"smiles notation": "Cc1cc(N2CCc3sc(C(F)(F)F)cc3C2)cc(C)c1NC(=O)CC(C)(C)C", "pEC50": 6.92}
{"smiles notation": "Cc1cc(N2CCCCc3cc(Cl)ccc32)cc(C)c1NC(=O)CC(C)(C)C", "pEC50": 6.85}

Then this molecule:
Exam item: Tell me the measured pEC50 of Cc1ccc2c(c1)CCCCN2c1cc(C)c(NC(=O)CC(C)(C)C)c(C)c1 , please.
Marked response: 7.40
